- Measurement Target: Glycine receptor subunit alpha-1 (Homo sapiens)
- Sequence (P23415 whole entry): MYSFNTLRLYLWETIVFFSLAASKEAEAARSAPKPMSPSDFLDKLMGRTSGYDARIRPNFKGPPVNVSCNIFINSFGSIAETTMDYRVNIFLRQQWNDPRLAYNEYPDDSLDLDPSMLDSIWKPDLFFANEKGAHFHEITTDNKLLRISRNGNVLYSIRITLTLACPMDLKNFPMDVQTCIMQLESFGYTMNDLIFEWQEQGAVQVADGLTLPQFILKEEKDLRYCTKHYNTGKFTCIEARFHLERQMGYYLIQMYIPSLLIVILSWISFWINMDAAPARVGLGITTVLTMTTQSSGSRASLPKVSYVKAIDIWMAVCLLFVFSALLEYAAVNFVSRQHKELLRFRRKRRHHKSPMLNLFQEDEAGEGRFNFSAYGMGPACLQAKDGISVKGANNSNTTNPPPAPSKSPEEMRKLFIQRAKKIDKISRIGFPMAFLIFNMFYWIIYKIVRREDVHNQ
- Test Name: Antagonist activity at human glycine receptor subunit alpha-1 expressed in human tsA201 cells assessed as reduction in glycine-induced response incubated for 30 mins by fluorescence-based FLIPR membrane potential blue assay
- Type: cell-based
- Condition Description: read-out: IC50
pIC50: −log10 of the molar value.
Classification field: YES = pIC50 at or over 5; NO = pIC50 under 5.

Examples with answers:
# Compound Structure String, Assigned Category
rows = [
    ("O=C(CCCCCCCCCCCCCCCCCCCCC(=O)NCCCCCCCCCCC(=O)Nc1ccc2c(c1)[C@@]13CCN4CC5=CCO[C@H]6CC(=O)N2[C@H]1[C@H]6[C@H]5C[C@H]43)NCCCCCCCCCCC(=O)Nc1ccc2c(c1)[C@@]13CCN4CC5=CCO[C@H]6CC(=O)N2[C@H]1[C@H]6[C@H]5C[C@H]43", "NO"),
    ("COCCOCCOCCOCCOCCOCCOCCOCCOCCOCCOCCOCCC(=O)NCCCCC(=O)Nc1ccc2c(c1)[C@@]13CCN4CC5=CCO[C@H]6CC(=O)N2[C@H]1[C@H]6[C@H]5C[C@H]43", "NO"),
    ("O=C(CCCCCCCCC(=O)NCC(=O)Nc1ccc2c(c1)[C@@]13CCN4CC5=CCO[C@H]6CC(=O)N2[C@H]1[C@H]6[C@H]5C[C@H]43)NCC(=O)Nc1ccc2c(c1)[C@@]13CCN4CC5=CCO[C@H]6CC(=O)N2[C@H]1[C@H]6[C@H]5C[C@H]43", "YES"),
    ("O=C(CCOCCOCCOCCOCCOCCOCCOCCOCCOCCOCCOCCOCCC(=O)NCCCCC(=O)Nc1ccc2c(c1)[C@@]13CCN4CC5=CCO[C@H]6CC(=O)N2[C@H]1[C@H]6[C@H]5C[C@H]43)NCCCCC(=O)Nc1ccc2c(c1)[C@@]13CCN4CC5=CCO[C@H]6CC(=O)N2[C@H]1[C@H]6[C@H]5C[C@H]43", "YES"),
    ("COCCOCCOCCOCCOCCOCCOCCOCCOCCOCCOCCOCCC(=O)NCCCCCCCCCCC(=O)Nc1ccc2c(c1)[C@@]13CCN4CC5=CCO[C@H]6CC(=O)N2[C@H]1[C@H]6[C@H]5C[C@H]43", "NO"),
    ("CCCCCCCC(=O)Nc1ccc2c(c1)[C@@]13CCN4CC5=CCO[C@H]6CC(=O)N2[C@H]1[C@H]6[C@H]5C[C@H]43", "YES"),
]

Then this molecule:
[Q] Test whether the molecule O=C(CCCCCCCCCCCCCCC(=O)NCC(=O)Nc1ccc2c(c1)[C@@]13CCN4CC5=CCO[C@H]6CC(=O)N2[C@H]1[C@H]6[C@H]5C[C@H]43)NCC(=O)Nc1ccc2c(c1)[C@@]13CCN4CC5=CCO[C@H]6CC(=O)N2[C@H]1[C@H]6[C@H]5C[C@H]43 records pIC50 of 5 or higher.
[A] YES
